tested system: CDK2 (human) (UniProt P24941)
test name: Cell-Based Assay
assay context: hdf-3
Listed molecules paired with reported IC50
measurement kind: IC50

- O=C1Nc2ccc3ncsc3c2/C1=C/Nc1ccc2nn[nH]c2c1: > 5 µM
- CS(=O)(=O)Cc1ccc(N/C=C2\C(=O)Nc3ccc4ncsc4c32)cc1: 1.1 to 5 µM
- NS(=O)(=O)c1ccc(NN=C2C(=O)Nc3ccc(-c4cnco4)cc32)cc1: 0.6 to 1 µM
- CCC(C)Cc1cccc2c1C(=NNc1ccc(S(N)(=O)=O)cc1)C(=O)N2 (configuration not stated): 1.1 to 5 µM
- CN(C)S(=O)(=O)c1ccc(N/C=C2\C(=O)Nc3ccc(-c4cnco4)cc32)cc1: > 5 µM
- CNS(=O)(=O)Cc1ccc(NN=C2C(=O)Nc3cc(C)c(O)c(C)c32)cc1: 1.1 to 5 µM
- CNS(=O)(=O)Cc1ccc(NN=C2C(=O)Nc3ccc4ncccc4c32)cc1: 1.1 to 5 µM

Data provenance is the Kinase Knowledgebase extract (Sharma et al. 2016).
